Numbers sourced from PubChem BioAssay (NCI).

- protocol.details: NCI Yeast Anticancer Drug Screen. Data for the mec2-1 strain (AID 157)
- measurement.context: S. cerevisiae mec2-1 strain, at 50.0 µM (retest, dose inferred, filed as 5.0), hits give high values
Compounds without any hit were thinned out: in the full panel of roughly 79,000, 15% have a hit.
Label TRUE for high-side growth inhibition (at or above 80%) and FALSE for low-side growth inhibition (below it).

# compound, class.assignment
measured = [
    ("O=[N+]([O-])c1cc([N+](=O)[O-])c(Cl)s1", "TRUE"),
    ("C[N+](C)(C)CC1CCCC(C[N+](C)(C)C)C1O (configuration not stated)", "FALSE"),
    ("N#CC(C#N)=NNc1cccc(Cl)c1Cl", "FALSE"),
    ("C[AsH](C)CC[AsH](C)C.C[AsH](C)CC[AsH](C)C.C[AsH](C)CC[AsH](C)C.[Ni]", "TRUE"),
    ("O=C([CH-]C(=O)c1ccccc1)c1ccccc1.O=C([CH-]C(=O)c1ccccc1)c1ccccc1.[Nd+3].[OH-].[OH3+]", "FALSE"),
    ("O=C(OCCl)c1ccccc1", "FALSE"),
    ("CC(=O)Nc1ccccc1[As](OC(C)=O)c1ccccc1 (configuration not stated)", "TRUE"),
]
